system: MS2 coat protein; experiment: apparent KD of MS2 coat protein; higher = weaker reporter binding; conditions: Eterna round: R107; input ligand: tryptophan 2.4 mM
Binary call on apparent KD of MS2 coat protein: condition met from 20 nM upward, condition not met beneath that.

Q. Entry UAUUAUAACCGAAGGAGCGGGAAAGAUGAUUUUUAAUAUUAACAUGAGGAUCACCCAUGUACCCAGGUAGGUCGCGGAUAUUAUU [Default title] : is its apparent KD of MS2 coat protein no less than 20 nM?
A. condition not met

Q. Entry ACUUCAUGAGGUGAUACCAGCCAAUGACAUGAGGACAUGAGGAUCACCCAUGUUUAUGUAGGCCCUUGGCAGCAUUGUAACAUGA [Same State Theophylline B 4] : is its apparent KD of MS2 coat protein no less than 20 nM?
A. condition met

Q. Entry UUAAAUGUGACGGAUACCAGCGUGUUGUAGAACAUGAGGAUCACCCAUGUAGUGAUCAUGCGCCCUUGGCAGCUGGUAUGUUUGA [7.aA] : is its apparent KD of MS2 coat protein no less than 20 nM?
A. condition met

Q. Entry CAAGAACAGCCAGAUCUUGGCAGCUGAGAAGGAGCGCGGGAAGCCGCAGGUAGGUCGCUCAGGAAUACAUGAGGAUCACCCAUGU [Beoror] : is its apparent KD of MS2 coat protein no less than 20 nM?
A. condition not met

Q. Entry UCUUGAGUUUCGGAUACCAGUGUUGUCGAUACAUGAGGAUCACCCAUGUUAGAGGAUGUACACCCUUGGCAGCCGGCUGUGGCGG [zszmullin] : is its apparent KD of MS2 coat protein no less than 20 nM?
A. condition not met

Q. Entry AUAAGUAUGUUUUCGUGUUUUAUUACAGAUACCAGACUAUACGUUGUCCCUUGGCAGCUGGAUUACAUGAGGAUCACCCAUGUUG [#26 Exclusion-TheophyllineA] : is its apparent KD of MS2 coat protein no less than 20 nM?
A. condition met

Q. Entry AUAACAUGAGGAUCACCCAUGUAAGGUGAUACCAGACGAAGUAAAGUCCCUUGGCAGCACAAGCAUAGUUGCGAAUAUUGAUAGA [JR_SSTheophyA_Sub005] : is its apparent KD of MS2 coat protein no less than 20 nM?
A. condition met

Q. Entry ACUCGGUAUGUCUAAUACCGAGAGUAUGAUACCAGUAUGGUGACAUACCCUUGGCAGCAUGGGACAUGAGGAUCACCCAUGUGUU [SSThA NP+V+V2 #10 Same Structure] : is its apparent KD of MS2 coat protein no less than 20 nM?
A. condition met

Q. Entry ACAAGAGGGAUGGAUACCAGCGACAUGAGGAUCACCCAUGUAUGAGGAUCAGCCAUGUUAUGCCCUUGGCAGCCACGAACAUCAG [SSAMULLIN] : is its apparent KD of MS2 coat protein no less than 20 nM?
A. condition not met

Q. Entry UAUUUUGUGAUGGAUACCAGCAGAGAAAACGUUUAUCCUAACAUGAGGAUCACCCAUGUAUGCCCUUGGCAGCUGUUGUGGGAUA [8.Q] : is its apparent KD of MS2 coat protein no less than 20 nM?
A. condition met

Q. Entry ACAUGAGGAUCACCCAUGUCAUGAGGUUCACGAGGACCGGUACGGCCGCCACUCGACAUGAGGGUCACCCGUGAAGGGAACACCC [xdmullin] : is its apparent KD of MS2 coat protein no less than 20 nM?
A. condition not met

Q. Entry ACGUCACGUUUACUCGUGGUUUCGAUCGAUACCAGUAGCGAGAGUUACCCUUGGCAGCGACAUGAGGAUCACCCAUGUGCGAAGA [XTheo A #26] : is its apparent KD of MS2 coat protein no less than 20 nM?
A. condition not met
